The values you see were collected from patent US12377110B2.

Experiment: Study No. 15-3 toxicokinetics of fospropofol and propofol in plasma
Format: in vivo, Sprague-Dawley rats
Conditions: female, Sprague-Dawley, rat, plasma, po, 250 mg/kg, oral gavage fospropofol disodium; Female; 250 mg/kg; Day 14; read-out: Fospropofol Tmax
Readout Type: Tmax (min)
One number for each entry, in min.

Could you please provide reported Tmax for CC(C)c1cccc(C(C)C)c1OCOP(=O)(O)O ? Thanks!
4.98

====

Assay: Study No. 15-3 toxicokinetics of fospropofol and propofol in plasma
Format: in vivo, Sprague-Dawley rats
Conditions: male, Sprague-Dawley, rat, plasma, po, 250 mg/kg, oral gavage fospropofol disodium; Male; 250 mg/kg; Day 14; read-out: Fospropofol AUC0-6 hr
Readout Type: AUC(0-t) (ng·h/mL)
Give bare numbers, in ng·h/mL.

Please list AUC(0-t) recorded for the molecule CC(C)c1cccc(C(C)C)c1OCOP(=O)(O)O
2130

====

Assay: Study A16 Part 1: PK of single ascending oral doses of fospropofol disodium (200 to 2000 mg), fasted healthy adults
Type: in vivo, human
Conditions: both sexes, human, plasma, oral, 800 mg, subjects 301-312 (800 mg cohort); Mean; read-out: Fospropofol Cmax
Readout Type: Cmax
Record the result as a number with its unit.

Recall and state the measured Cmax for CC(C)c1cccc(C(C)C)c1OCOP(=O)(O)O .
6040 ng/mL

====

Assay: Study No. 15-4 (GLP): 14-day once daily oral gavage toxicity of fospropofol disodium
Format: in vivo, Beagle dogs
Conditions: both sexes, dog, in vivo; 14 days once daily oral gavage, Beagle dogs
Readout Type: NOAEL at 14 days (mg/kg/day)
Numbers only, in mg/kg/day.

Fill in NOAEL at 14 days for record CC(C)c1cccc(C(C)C)c1OCOP(=O)([O-])O.[Na+] [fospropofol disodium]
160

====

Test: Study A16 Part 1: PK of single ascending oral doses of fospropofol disodium (200 to 2000 mg), fasted healthy adults
Assay type: in vivo, human
Details: both sexes, human, plasma, po, 1600 mg, Propofol Cmax Minimum, oral fospropofol disodium 1600 mg
Readout Type: Cmax (ng/mL)
Numbers only, in ng/mL.

Supply reported Cmax belonging to this compound: CC(C)c1cccc(C(C)C)c1O [propofol, 2,6-diisopropylphenol]
229

====

Assay: Study A16 Part 1: PK of single ascending oral doses of fospropofol disodium (200 to 2000 mg), fasted healthy adults
Type: in vivo, human
Details: both sexes, human, plasma; oral fospropofol disodium 1600 mg; mean; read-out: Fospropofol AUC0-T
Readout Type: AUC(0-t) (µg·h/mL)
Numbers only, in µg·h/mL.

Give me measured AUC(0-t), please, for this compound: CC(C)c1cccc(C(C)C)c1OCOP(=O)(O)O
6.09

====

Assay: Study A16 Part 1: PK of single ascending oral doses of fospropofol disodium (200 to 2000 mg), fasted healthy adults
Assay type: in vivo, human
Conditions: both sexes, human, plasma, po, 1600 mg, Propofol Cmax Maximum, oral fospropofol disodium 1600 mg
Readout Type: Cmax (ng/mL)
Numbers only, in ng/mL.

Given CC(C)c1cccc(C(C)C)c1O , respond with its Cmax.
1170

====

Test: Study No. 15-3 toxicokinetics of fospropofol and propofol in plasma
Format: in vivo, Sprague-Dawley rats
Details: female, Sprague-Dawley, rat, plasma, po, 50 mg/kg, oral gavage fospropofol disodium; Female; 50 mg/kg; Day 1; read-out: Fospropofol Tmax
Readout Type: Tmax

Look up Tmax of CC(C)c1cccc(C(C)C)c1OCOP(=O)(O)O and report it.
4.98 min
